biological target: human PCSK9 (proprotein convertase subtilisin kexin type 9) (human, UniProt Q8NBP7 31-692); experiment: cell-based or functional assay
Sequence (Q8NBP7 31-692 limits assumed): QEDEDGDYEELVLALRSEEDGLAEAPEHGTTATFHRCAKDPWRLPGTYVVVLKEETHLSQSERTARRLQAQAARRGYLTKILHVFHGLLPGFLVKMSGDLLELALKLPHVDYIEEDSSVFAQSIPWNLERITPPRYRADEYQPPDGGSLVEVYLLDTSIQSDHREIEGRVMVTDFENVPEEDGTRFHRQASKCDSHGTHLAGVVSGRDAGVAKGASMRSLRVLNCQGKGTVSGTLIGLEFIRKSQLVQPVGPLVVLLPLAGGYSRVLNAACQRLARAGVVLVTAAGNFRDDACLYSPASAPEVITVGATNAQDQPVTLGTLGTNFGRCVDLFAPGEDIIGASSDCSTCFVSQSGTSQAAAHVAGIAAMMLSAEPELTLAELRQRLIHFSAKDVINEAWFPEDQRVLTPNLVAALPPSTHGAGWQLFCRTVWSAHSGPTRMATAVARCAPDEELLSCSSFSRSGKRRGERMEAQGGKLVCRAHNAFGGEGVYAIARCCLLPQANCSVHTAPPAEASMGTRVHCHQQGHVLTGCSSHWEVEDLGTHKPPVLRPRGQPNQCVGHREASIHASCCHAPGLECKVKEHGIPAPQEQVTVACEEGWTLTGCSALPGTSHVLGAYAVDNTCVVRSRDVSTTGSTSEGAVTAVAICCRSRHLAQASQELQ
Record form. Attribute: percentage of PCSK9 inhibition at 75 nM. Fill in for each entry.
Give bare numbers, in %.

Recorded percentage of PCSK9 inhibition at 75 nM, per entry:
binder	unit-symbol	observed-value
2011H05 (designed binder, also called ATI001091) MGVSDVPRDLEVVAATPTSLLISWVPSSHAYGYYRITYGETGGNSPVQEFTVPVGVGTATISGLKPGVDYTITVYAVEYAFEGAGYYHRPISINYRTEIDKPSQHHHHHH	%	177
1784F03 (designed binder) MGVSDVPRDLEVVAATPTSLLISWRPPIHAYGYYRITYGETGGNSPVQEFTVPIVEGTATISGLKPGVDYTITVYAVEYTFKHSGYYHRPISINYRTEIDKPSQHHHHHH	%	150
2012A04 (designed binder) MGVSDVPRDLEVVAATPTSLLISWRPPSNGHGYYRITYGETGGNSPVQEFTVPVNEGTATISGLKPGVDYTITVYAVEFPFKWSGYYHRPISINYRTEIDKPSQHHHHHH	%	190
2013E01 (designed binder, unmodified (not PEGylated) Adnectin; also called ATI001081) MGVSDVPRDLEVVAATPTSLLISWVPPSDDYGYYRITYGETGGNSPVQEFTVPIGKGTATISGLKPGVDYTITVYAVEFPWPHAGYYHRPISINYRTEIDKPSQHHHHHH	%	152

Documented percentage of PCSK9 inhibition at 75 nM of 1459D05 (designed binder, also called ATI000891; ATI-891) MGVSDVPRDLEVVAATPTSLLISWPPPSHGYGYYRITYGETGGNSPVQEFTVPPGKGTATISGLKPGVDYTITVYAVEYPYKHSGYYHRPISINYRTEIDKPSQHHHHHH : 66.8

The values you see were collected from patent US20120094909A1.
